Hey, just so you know, these numbers are from paper PMC3633919.

# ASSAYED TARGET: PxylOR4/PxylOrco (Plutella xylostella)
# Construct: full-length untagged ORF 1209 bp (402 residues); pSP64T cRNA co-injected with PxylOrco cRNA in Xenopus laevis oocytes; with Odorant receptor coreceptor
# Sequence (M9ZZM3 1-402): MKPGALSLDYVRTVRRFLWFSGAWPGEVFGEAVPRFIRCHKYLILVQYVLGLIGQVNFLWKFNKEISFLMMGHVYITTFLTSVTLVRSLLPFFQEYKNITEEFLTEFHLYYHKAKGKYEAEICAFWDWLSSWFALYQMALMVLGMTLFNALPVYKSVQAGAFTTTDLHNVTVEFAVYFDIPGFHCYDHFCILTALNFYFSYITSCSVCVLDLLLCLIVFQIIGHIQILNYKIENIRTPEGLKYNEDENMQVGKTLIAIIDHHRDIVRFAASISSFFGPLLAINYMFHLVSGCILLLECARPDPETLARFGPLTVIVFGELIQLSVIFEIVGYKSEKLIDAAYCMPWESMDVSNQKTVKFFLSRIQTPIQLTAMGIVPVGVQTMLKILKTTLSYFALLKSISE
# Sequence (D0EZE1 1-471 partner): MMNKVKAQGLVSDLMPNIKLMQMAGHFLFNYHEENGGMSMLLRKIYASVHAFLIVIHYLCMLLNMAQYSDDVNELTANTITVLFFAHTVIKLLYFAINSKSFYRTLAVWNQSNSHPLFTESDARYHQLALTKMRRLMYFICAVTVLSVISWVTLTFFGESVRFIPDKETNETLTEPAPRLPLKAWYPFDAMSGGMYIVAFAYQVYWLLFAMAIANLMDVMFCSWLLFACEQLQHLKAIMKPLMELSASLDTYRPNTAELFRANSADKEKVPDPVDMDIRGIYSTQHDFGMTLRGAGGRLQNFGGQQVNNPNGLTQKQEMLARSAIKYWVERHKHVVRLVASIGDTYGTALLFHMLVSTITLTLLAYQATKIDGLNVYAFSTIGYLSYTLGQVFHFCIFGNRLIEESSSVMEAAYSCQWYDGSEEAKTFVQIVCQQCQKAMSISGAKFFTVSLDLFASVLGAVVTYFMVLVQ
# EXPERIMENT NOTES: two-electrode voltage clamp, Xenopus oocytes
# Assay type: cell-based
pEC50: −log10 of the molar value.

COMPOUND	ASSAYED TARGET	pEC50
C/C=C/C/C=C\CCCCCCCCOC(C)=O	PxylOR4/PxylOrco (Plutella xylostella)	5.71
CCCC/C=C\CCCCCCCCOC(C)=O [Z9-14:Ac, (Z)-9-tetradecenyl acetate]	PxylOR4/PxylOrco (Plutella xylostella)	6.61
